Target: human SLC6A19 (Homo sapiens, UniProt Q695T7)
Construct: expressed in transfected cells
Sequence (Q695T7 1-634): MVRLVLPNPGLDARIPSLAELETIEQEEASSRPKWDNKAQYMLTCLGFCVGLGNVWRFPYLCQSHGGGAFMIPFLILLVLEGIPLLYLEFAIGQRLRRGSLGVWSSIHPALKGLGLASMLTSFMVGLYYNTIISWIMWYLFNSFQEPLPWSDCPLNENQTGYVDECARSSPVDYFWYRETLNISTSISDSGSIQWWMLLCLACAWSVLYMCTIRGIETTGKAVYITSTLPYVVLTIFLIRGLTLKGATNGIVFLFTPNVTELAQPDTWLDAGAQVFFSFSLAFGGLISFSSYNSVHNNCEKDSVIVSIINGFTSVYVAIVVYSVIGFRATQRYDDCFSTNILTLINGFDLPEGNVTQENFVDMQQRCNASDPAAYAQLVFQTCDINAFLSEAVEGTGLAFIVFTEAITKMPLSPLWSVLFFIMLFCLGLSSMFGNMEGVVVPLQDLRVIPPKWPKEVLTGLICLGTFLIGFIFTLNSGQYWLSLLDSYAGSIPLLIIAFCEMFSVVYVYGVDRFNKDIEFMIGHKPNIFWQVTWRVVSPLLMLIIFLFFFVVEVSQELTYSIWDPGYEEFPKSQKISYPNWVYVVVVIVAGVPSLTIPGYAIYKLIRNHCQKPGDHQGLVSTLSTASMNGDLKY
Sequence (Q9HBJ8 15-222 partner): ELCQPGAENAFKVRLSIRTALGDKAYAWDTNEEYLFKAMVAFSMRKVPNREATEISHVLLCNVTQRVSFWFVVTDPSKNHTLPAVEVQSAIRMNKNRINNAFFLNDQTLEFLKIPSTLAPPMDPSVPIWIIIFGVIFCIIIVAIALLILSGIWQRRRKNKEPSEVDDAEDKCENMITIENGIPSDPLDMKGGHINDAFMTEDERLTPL
Test: Example B2: 13C6,15N-isoleucine uptake, RapidFire mass spectrometry, in CHO cells with doxycycline-inducible expression of human SLC6A19 and TMEM27
Assay type: cell-based
Conditions: read-out: SLC6A19_RapidFire Uptake Assay IC50
valueKind: IC50 (nM)

1 = CN(C(=O)NCc1cc2cc(Cl)ccc2[nH]1)[C@@H]1CCCN(C(=O)CC2(O)CCC2)C1
2 = COc1ccc(CC(=O)N2CCC[C@@H](N(C)C(=O)NCc3cc4cc(Cl)ccc4[nH]3)C2)cc1F
q: Select the item whose IC50 value is smaller, choosing between 1 and 2 . State your choice using its label.
a: 2

1 = CN(C(=O)NCc1cc2cc(Cl)ccc2[nH]1)[C@@H]1CCCN(C(=O)C2COC2)C1
2 = CN(C(=O)NCc1cc2cc(Cl)ccc2[nH]1)[C@@H]1CCCN(C(=O)c2ncc(F)cn2)C1
3 = CN(C(=O)NCc1cc2cc(Cl)ccc2[nH]1)[C@@H]1CCCN(C(=O)Cc2ncco2)C1
4 = CN(C(=O)NCc1cc2cc(Cl)ccc2[nH]1)[C@@H]1CCCN(C(=O)C23CC(C2)C3)C1
5 = CN(C(=O)NCc1cc2cc(Cl)ccc2[nH]1)[C@@H]1CCCN(c2ccon2)C1
q: Please list these in order of increasing IC50. Thank you! Provide the labels, sequenced as the question asks.
a: 5, 1, 4, 3, 2
(5: 40.4 nM, 1: 252 nM, 4: 427 nM, 3: 763 nM, 2: 4200 nM)

a = CN(C(=O)NCc1cc2cc(Cl)ccc2[nH]1)[C@@H]1CCCN(C(=O)c2cccc(O)c2)C1
b = CN(C(=O)NCc1cc2cc(Cl)ccc2[nH]1)[C@@H]1CCCN(C(=O)c2cnco2)C1
q: Which gives the smaller IC50 number: a or b ? Response format: the label of the selected entry.
a: b
(b: 287 nM, a: 578 nM)

a = CC(=O)N1CCC[C@@H](N(C)C(=O)NCc2cc3cc(F)ccc3[nH]2)C1
b = CN(C(=O)NCc1cc2cc(Cl)ccc2[nH]1)[C@@H]1CCCN(C(=O)c2ccn(CC(F)(F)F)n2)C1
q: // pick min by IC50: a , b Answer with the label corresponding to your selection.
a: b

P = CN(C(=O)NCc1cc2cc(Cl)ccc2[nH]1)[C@@H]1CCCN(C(=O)Cc2cccnc2)C1
Q = Cc1cc(COc2ccc3cc(CNC(=O)N(C)[C@@H]4CCCN(c5cccnn5)C4)[nH]c3c2)no1
q: I would appreciate it if you could say which entry, P or Q , has the lower IC50 value. Give the chosen item's label as your response.
a: P
(P: 887 nM, Q: 1310 nM)

A = CN1CCC[C@@H](N(C)C(=O)NCc2cc3cc(Cl)ccc3[nH]2)C1
B = COc1ccc(C(=O)N2CCC[C@@H](N(C)C(=O)NCc3cc4cc(Cl)ccc4[nH]3)C2)nc1
C = COc1cc2[nH]c(CNC(=O)N(C)[C@@H]3CCCN(C(C)=O)C3)cc2cc1C
D = CCN(C(=O)NCc1cc2cc(Cl)ccc2[nH]1)[C@@H]1CCCN(C(C)=O)C1
q: Arrange these molecules by their IC50, starting with the largest number. The response must list the labels following the requested ordering.
a: A, B, C, D

P = CC(=O)N1CCC[C@@H](N(C)C(=O)NCc2cc3cc(C4CC4)ccc3[nH]2)C1
Q = CC(=O)NCC(=O)N1CCC[C@@H](N(C)C(=O)NCc2cc3cc(Cl)ccc3[nH]2)C1
q: Decide: P or Q , by lowest recorded IC50. // respond with label for picked entry
a: P

P = CC(=O)NCCC(=O)N1CCC[C@@H](N(C)C(=O)NCc2cc3cc(Cl)ccc3[nH]2)C1
Q = CN(C(=O)NCc1cc2cc(Cl)ccc2[nH]1)[C@@H]1CCCN(C(=O)c2c[nH]cn2)C1
q: Which entry has a larger number for IC50, P or Q ? # answer = label of selected item
a: Q
